Reference source: patent US20210196796A1

measuredTarget: T1, orthogonal hCD122 receptor (hoRb), hCD122 with H133D and Y134F (human, UniProt P14784 27-550)
T1 sequence: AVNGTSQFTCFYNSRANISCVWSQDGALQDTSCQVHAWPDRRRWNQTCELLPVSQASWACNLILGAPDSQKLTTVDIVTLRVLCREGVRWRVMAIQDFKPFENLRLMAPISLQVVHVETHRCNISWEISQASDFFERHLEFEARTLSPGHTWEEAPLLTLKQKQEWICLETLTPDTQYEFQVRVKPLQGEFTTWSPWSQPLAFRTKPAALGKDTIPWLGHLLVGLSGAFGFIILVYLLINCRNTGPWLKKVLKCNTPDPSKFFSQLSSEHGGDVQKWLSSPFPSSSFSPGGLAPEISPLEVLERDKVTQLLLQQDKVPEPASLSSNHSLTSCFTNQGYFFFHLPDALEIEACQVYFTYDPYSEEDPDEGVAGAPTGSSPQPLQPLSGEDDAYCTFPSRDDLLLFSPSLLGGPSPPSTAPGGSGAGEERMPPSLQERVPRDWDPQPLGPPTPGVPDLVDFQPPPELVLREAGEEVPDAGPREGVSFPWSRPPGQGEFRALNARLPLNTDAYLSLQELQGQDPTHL
experimentalProtocol: cell-based or functional assay
reportedMetric: Relative Proliferation Fold Change NKL 1:2 (fold)
// note: answer is a bare numeric in fold

Entry under test: R81I, SQVLKA (ligand) APTSSSTKKTQLQLSQLLVLLKAILNGINNYKNPKLTRMLTFKFYMPKKATELKHLQCLEEELKPLEEVLNLAQSKNFHLIPRDLISNINVIVLELKGSETTFMCEYADETATIVEFLNRWITFCQSIISTLT . Its Relative Proliferation Fold Change NKL 1:2 was 3.84

Entry under test: SQILKA (ligand) APTSSSTKKTQLQLSQLLILLKAILNGINNYKNPKLTRMLTFKFYMPKKATELKHLQCLEEELKPLEEVLNLAQSKNFHLRPRDLISNINVIVLELKGSETTFMCEYADETATIVEFLNRWITFCQSIISTLT . Its Relative Proliferation Fold Change NKL 1:2 was 4.01
